The following molecules are shown together with reported normalized growth values.
- assay protocol: chemical genetic growth profiling, strain panel (AID 1159580);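 further: tested at 20 µM; growth read once vehicle control cultures reached saturation at 30 °C; 1 = growth at the plate median or of vehicle wells; lower values mean less growth of the strain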
- experimental parameters: S. cerevisiae deletion strains, growth OD, locus YOR144C, strain elg1, hits give low values
About 2,000 (36%) of roughly 5,500 compounds were called active. Another 18% or so got no clear call; they are omitted. The list shows a part of the results.
The answer should be written as a number, with no unit following it.

# molecule, normalized growth
data = [
    ("COc1cc(/C=C/C=O)cc(OC)c1OC", 0.998),
]

Given item COc1cc2c(cc1OC)-c1c(oc3c4c(ccc3c1=O)OC(C(C)C)C4)CO2 (configuration not stated) , the value recorded as its normalized growth is 1

Given item COc1ccc(C(=O)O)c(O)c1OC , the value recorded as its normalized growth is 0.991

Given item CCOC([O-])=Nc1c[n+](N2CCOCC2)no1 , the value recorded as its normalized growth is 0.991

Given item CCNc1nc(Cl)nc(NCC)n1 , the value recorded as its normalized growth is 1

---

- assay protocol: chemical genetic growth profiling, strain panel (AID 1159580);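 further: tested at 20 µM; growth read once vehicle control cultures reached saturation at 30 °C; 1 = growth at the plate median or of vehicle wells; lower values mean less growth of the strain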
- experimental parameters: S. cerevisiae deletion strains, growth OD, locus YIL125W, strain kgd1, hits give low values
Screen size: about 5,500 compounds; about 2,000 (36%) were called active. Roughly 18% stayed inconclusive and do not appear here. This is one part of the list.
value kind: normalized growth
The answer should be written as a number, with no unit following it.

# compound, normalized growth
rows = [
    ("COP(=O)(OC)OC(Br)C(Cl)(Cl)Br (centres undefined)", 1),
    ("COc1c2ccoc2cc2oc(C)cc(=O)c12", 1),
]

Given item CCN(CC)CCNC(=O)c1cc(Cl)c(N)cc1OC , the value recorded as its normalized growth is 0.993

Given item CCOc1cccc(C(=O)c2ccc(O)c(O)c2O)c1 , the value recorded as its normalized growth is 0.951

Given item CO[C@H]1C[C@H](O[C@H]2[C@H](C)[C@@H](OC3O[C@H](C)C[C@H](N(C)C)[C@H]3OC(C)=O)[C@@H](C)C[C@]3(CO3)C(=O)[C@H](C)[C@@H](OC(C)=O)[C@@H](C)[C@@H](C)OC(=O)[C@@H]2C)O[C@@H](C)[C@@H]1OC(C)=O (some centres undefined) , the value recorded as its normalized growth is 0.988

---

The following molecules are shown together with reported normalized growth values.
- assay protocol: chemical genetic growth profiling, strain panel (AID 1159580);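 further: tested at 20 µM; growth read once vehicle control cultures reached saturation at 30 °C; 1 = growth at the plate median or of vehicle wells; lower values mean less growth of the strain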
- experimental parameters: S. cerevisiae deletion strains, growth OD, locus YPL241C, strain CIN2, hits give low values
Screen size: about 5,500 compounds; about 2,000 (36%) were called active. Another 18% or so got no clear call; they are omitted. This is one part of the list.
The answer should be written as a number, with no unit following it.

Given item OCCN1CCN(CCCN2c3ccccc3Sc3ccc(C(F)(F)F)cc32)CC1 , the value recorded as its normalized growth is 0.997

Given item O=C(O)c1nccnc1C(=O)O , the value recorded as its normalized growth is 1.01

Given item Cc1onc(-c2ccccc2)c1C(=O)NC1C(=O)N2[C@@H]1SC(C)(C)[C@@H]2C(=O)O (stereo not given in full) , the value recorded as its normalized growth is 1.01

Given item CC(=O)NC(=O)/C(C#N)=C/N1CCN(Cc2ccccc2)CC1 , the value recorded as its normalized growth is 0.989

Given item CC(=O)OCC1=C(C(=O)O)N2C(=O)[C@@H](NC(=O)CCCC(N)C(=O)O)C2SC1 (stereo not given in full) , the value recorded as its normalized growth is 1.01

Each recorded value in this set is attributed to PubChem BioAssay AID1159580.
